Target: hERG potassium channel (IKr) (Homo sapiens, UniProt Q12809)
Sequence (Q12809 whole entry): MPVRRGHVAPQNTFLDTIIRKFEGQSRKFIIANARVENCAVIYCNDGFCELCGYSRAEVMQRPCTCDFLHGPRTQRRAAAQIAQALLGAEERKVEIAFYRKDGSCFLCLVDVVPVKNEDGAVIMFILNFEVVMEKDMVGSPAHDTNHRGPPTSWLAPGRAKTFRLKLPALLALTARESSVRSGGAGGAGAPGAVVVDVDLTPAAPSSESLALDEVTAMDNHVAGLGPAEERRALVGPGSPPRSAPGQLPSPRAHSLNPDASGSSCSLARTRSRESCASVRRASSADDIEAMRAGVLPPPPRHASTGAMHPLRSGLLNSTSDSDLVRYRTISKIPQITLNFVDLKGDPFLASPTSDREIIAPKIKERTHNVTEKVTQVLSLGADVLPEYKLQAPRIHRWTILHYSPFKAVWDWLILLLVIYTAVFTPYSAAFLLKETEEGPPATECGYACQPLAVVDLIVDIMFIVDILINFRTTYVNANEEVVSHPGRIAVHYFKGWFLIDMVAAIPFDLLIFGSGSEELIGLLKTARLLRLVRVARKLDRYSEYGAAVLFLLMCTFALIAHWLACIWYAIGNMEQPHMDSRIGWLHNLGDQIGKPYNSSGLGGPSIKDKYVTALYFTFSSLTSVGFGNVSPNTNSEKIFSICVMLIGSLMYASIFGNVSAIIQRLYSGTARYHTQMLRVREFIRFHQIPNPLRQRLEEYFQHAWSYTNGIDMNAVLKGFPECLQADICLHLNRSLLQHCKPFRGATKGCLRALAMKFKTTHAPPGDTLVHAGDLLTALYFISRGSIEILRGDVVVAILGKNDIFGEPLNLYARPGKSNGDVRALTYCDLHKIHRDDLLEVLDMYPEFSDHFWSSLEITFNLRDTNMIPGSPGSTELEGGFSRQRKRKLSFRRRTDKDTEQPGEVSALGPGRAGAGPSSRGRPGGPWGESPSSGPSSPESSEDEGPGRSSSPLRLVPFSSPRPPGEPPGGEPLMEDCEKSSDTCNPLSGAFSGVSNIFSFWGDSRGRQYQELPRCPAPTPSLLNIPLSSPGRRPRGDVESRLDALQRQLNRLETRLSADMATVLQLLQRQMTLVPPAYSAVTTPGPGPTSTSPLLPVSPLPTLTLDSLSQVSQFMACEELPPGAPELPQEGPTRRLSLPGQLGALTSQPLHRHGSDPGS
Assay: Automated patch clamp, hERG (IKr) expressed in CHO cells
Settings: hERG (IKr) IC50, CHO cells
pIC50: −log10 of the molar value. Where a name gives a salt, the structure may show the parent alone.
Assign class by pIC50: not lower than 5 means Fulfilled; lower than 5 means Not fulfilled.

Query: Kindly determine if pIC50 recorded for Cc1cc(C)cc(OCC(N)C2CC2)c1.Cl (centres unmarked) [Compound 91] is above or exactly 5.
Response: Not fulfilled

Query: Kindly determine if pIC50 recorded for NC(COc1ccccc1C(F)(F)F)c1ccccc1 (centres unmarked) [Compound 27] is above or exactly 5.
Response: Not fulfilled

Query: Kindly determine if pIC50 recorded for Cc1cccc(C)c1OC[C@H](C)N [Compound 2b, (S)-(+)-Mexiletine Hydrochloride, reference compound] is above or exactly 5.
Response: Not fulfilled

Query: Kindly determine if pIC50 recorded for CNC(C)COc1c(C)cccc1C (centres unmarked) [Compound 11] is above or exactly 5.
Response: Not fulfilled

Query: Kindly determine if pIC50 recorded for COCCNC(COc1cc(C(F)(F)F)cc(C(F)(F)F)c1)c1ccccc1.Cl (centres unmarked) [Compound 80] is above or exactly 5.
Response: Not fulfilled

Query: Kindly determine if pIC50 recorded for Cc1cccc(C)c1OC[C@@H](C)N [Compound 2a, (R)-(−)-Mexiletine Hydrochloride, reference compound] is above or exactly 5.
Response: Not fulfilled

Query: Kindly determine if pIC50 recorded for Cc1cccc(C)c1OCC(N)C1CC1 (centres unmarked) [Compound 10] is above or exactly 5.
Response: Not fulfilled

Query: Kindly determine if pIC50 recorded for Cc1cc(C)cc(OCC(N)C2CCCCC2)c1.Cl (centres unmarked) [Compound 89] is above or exactly 5.
Response: Fulfilled

Query: Kindly determine if pIC50 recorded for Cc1cccnc1OCC(O)c1ccccc1 (centres unmarked) [Compound 21] is above or exactly 5.
Response: Not fulfilled

Query: Kindly determine if pIC50 recorded for Cc1cc(C)cc(OCC(N)c2ccccc2)c1.Cl (racemic) [Compound 70, hydrochloride] is above or exactly 5.
Response: Fulfilled

Query: Kindly determine if pIC50 recorded for Cc1ccccc1OCC(C)N (centres unmarked) [Compound 9, 1-(2-Methylphenoxy)propan-2-amine] is above or exactly 5.
Response: Not fulfilled

Query: Kindly determine if pIC50 recorded for Cc1cccc(C)c1OCC(C)N (racemic) [Compound 1, Mexiletine, reference compound] is above or exactly 5.
Response: Not fulfilled

Query: Kindly determine if pIC50 recorded for Cc1cc(C)cc(OCC(C)N)c1 (centres unmarked) [Compound 55] is above or exactly 5.
Response: Not fulfilled

Query: Kindly determine if pIC50 recorded for COCCNC(COc1cc(C)cc(C)c1)c1ccccc1.Cl (centres unmarked) [Compound 69] is above or exactly 5.
Response: Fulfilled

Query: Kindly determine if pIC50 recorded for Cc1ccc(OCC(N)c2ccccc2)c(C)c1.Cl (centres unmarked) [Compound 66] is above or exactly 5.
Response: Fulfilled

Query: Kindly determine if pIC50 recorded for COCCNC(COc1cccc(C)c1C)c1ccccc1 (racemic) [Compound 36] is above or exactly 5.
Response: Not fulfilled

Query: Kindly determine if pIC50 recorded for Cc1cccc(C)c1OCC(N)C(C)(C)C (centres unmarked) [Compound 12] is above or exactly 5.
Response: Not fulfilled
